All figures here come from patent US20140005103A1.

# measuredTarget: CYP3A4 (Homo sapiens)
# Sequence (P08684 2-503): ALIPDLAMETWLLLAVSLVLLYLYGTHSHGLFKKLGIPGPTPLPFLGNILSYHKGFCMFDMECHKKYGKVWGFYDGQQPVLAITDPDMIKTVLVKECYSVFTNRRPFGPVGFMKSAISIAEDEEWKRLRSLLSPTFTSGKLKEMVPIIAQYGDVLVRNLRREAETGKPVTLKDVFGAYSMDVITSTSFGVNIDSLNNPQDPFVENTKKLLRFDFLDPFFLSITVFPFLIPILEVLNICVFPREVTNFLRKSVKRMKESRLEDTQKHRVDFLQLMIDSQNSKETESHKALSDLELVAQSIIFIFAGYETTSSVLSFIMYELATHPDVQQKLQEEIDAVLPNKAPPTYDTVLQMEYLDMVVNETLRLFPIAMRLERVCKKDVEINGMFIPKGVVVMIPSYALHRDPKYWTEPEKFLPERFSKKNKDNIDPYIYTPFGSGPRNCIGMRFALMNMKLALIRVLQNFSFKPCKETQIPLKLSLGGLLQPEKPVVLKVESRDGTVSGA
# protocolDetails: IC50 vs CYP3A by inhibition of lopinavir metabolism in human liver microsomes
# Assay type: biochemical
# particulars: pH 7.4, human liver microsomes, 1.5 μM lopinavir, 8 min at 37° C., test concentrations 0.098-100 nM, read-out: 3A4(LPV)
assayEndpoint: IC50 at 8 min (nM)
Form entry: value (nM) — number only.

compound: CC1CN2C[C@H](O)C[C@H]2CN1c1ncc(S(=O)(=O)N2CCN(Cc3cncn3[C@H](C)c3ccc(F)cc3)CC2)s1 (single isomer, unassigned) [Compound 22]
resultUnit: nM
experimentalValue: 1.3
--
compound: CN1CCN(c2ncc(S(=O)(=O)N3CCN(Cc4cncn4CCOc4ccc(Cl)cc4)CC3)s2)CC1 [Compound 32]
resultUnit: nM
experimentalValue: 1.2

Fill in the blank: the reported IC50 at 8 min of C[C@H](c1ccc(F)cc1)n1cncc1CN1CCN(S(=O)(=O)c2cnc(N3CCC4(CC3)CNC(=O)N4)s2)CC1 [Compound 3] is ____.
2.7

* * *

# measuredTarget: human CYP11B2 (Homo sapiens, UniProt P19099)
# Sequence (P19099 25-503): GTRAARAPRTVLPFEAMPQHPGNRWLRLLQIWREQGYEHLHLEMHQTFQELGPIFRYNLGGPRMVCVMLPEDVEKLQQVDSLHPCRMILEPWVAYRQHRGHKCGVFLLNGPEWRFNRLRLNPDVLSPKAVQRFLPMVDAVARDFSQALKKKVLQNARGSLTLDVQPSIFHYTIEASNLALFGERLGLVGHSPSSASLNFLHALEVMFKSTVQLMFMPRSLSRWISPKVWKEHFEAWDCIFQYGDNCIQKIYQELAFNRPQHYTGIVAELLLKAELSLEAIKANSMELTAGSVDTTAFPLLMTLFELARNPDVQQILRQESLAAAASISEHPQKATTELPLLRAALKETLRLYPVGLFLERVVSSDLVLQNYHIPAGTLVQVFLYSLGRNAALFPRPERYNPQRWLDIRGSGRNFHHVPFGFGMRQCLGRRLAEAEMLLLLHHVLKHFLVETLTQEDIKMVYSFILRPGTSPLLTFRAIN
# protocolDetails: IC50 vs CYP11B2 by aldosterone synthesis in V79 cells
# particulars: V79 cells expressing human CYP11B2, 750 nM DOC, aldosterone HTRF; test concentrations 0.5-10000 nM
// IC50 lookup, one value per entry
Provide only the numeric value, understood in nM.

Use the examples below as a reference point.
molecule: CN1CCN(c2ncc(S(=O)(=O)N3CCN(Cc4cncn4CCOc4ccc(F)cn4)CC3)s2)CC1 [Compound 33]
experimentalValue: 1610

molecule: CN1CCN(c2ncc(S(=O)(=O)N3CCN(Cc4cncn4CCOc4ccc(Cl)cc4)CC3)s2)CC1 [Compound 32]
experimentalValue: 1030

molecule: C[C@H](c1ccc(F)cc1)n1cncc1CN1CCN(S(=O)(=O)c2cnc(N3CC[C@@H](N)[C@H](F)C3)s2)CC1 [Compound 12]
experimentalValue: 1690

molecule: C[C@H](c1ccc(F)cc1)n1cncc1CN1CCN(S(=O)(=O)c2cnc(N3CCNCC3)s2)CC1 [Compound 1]
experimentalValue: 1720

molecule: C[C@H](c1ccc(F)cc1)n1cncc1CN1CCN(S(=O)(=O)c2cnc(N3CC[C@@H]4NCCO[C@H]4C3)s2)CC1 [Compound 15]
experimentalValue: 3620

// moving on: another record for IC50
Can you look up the measured IC50 of C[C@H](c1ccc(F)cc1)n1cncc1CN1CCN(S(=O)(=O)c2cnc(N3CCN(C4CCN(C)CC4)CC3)s2)CC1 [Compound 9] for me?
3920

* * *

# measuredTarget: CYP2C9 (Homo sapiens)
# Sequence (P11712 whole entry): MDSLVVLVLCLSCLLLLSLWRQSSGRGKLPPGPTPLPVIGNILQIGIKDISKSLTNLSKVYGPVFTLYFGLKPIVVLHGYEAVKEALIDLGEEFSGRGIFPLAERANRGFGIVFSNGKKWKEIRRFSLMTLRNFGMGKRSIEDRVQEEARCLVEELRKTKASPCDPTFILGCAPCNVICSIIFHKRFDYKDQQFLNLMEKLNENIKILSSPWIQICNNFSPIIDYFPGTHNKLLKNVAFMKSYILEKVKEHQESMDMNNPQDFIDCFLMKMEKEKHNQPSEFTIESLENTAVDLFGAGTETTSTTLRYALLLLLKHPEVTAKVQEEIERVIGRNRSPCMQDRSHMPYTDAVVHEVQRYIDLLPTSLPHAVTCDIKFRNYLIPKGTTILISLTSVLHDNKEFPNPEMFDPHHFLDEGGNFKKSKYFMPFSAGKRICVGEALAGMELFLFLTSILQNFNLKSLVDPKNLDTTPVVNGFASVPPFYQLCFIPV
Listed here: items and their measured pIC50.
pIC50 is defined as minus the log10 of a concentration measured in mol/L.

The cases that follow already have their pIC50 on record.
molecule: C[C@H](c1ccc(F)cc1)n1cncc1C1C(=O)OCC2CN(S(=O)(=O)c3cnc(Nc4ccc(C(F)(F)F)cn4)s3)CCN21 (stereo partly shown)
assayEndpoint: pIC50
experimentalValue: 5.33

molecule: COC(c1cncn1[C@H](C)c1ccc(F)cc1)C1CCN(S(=O)(=O)c2cnc(Nc3ccc(C(F)(F)F)cn3)s2)CC1 (single isomer, unassigned) [Compound 45b]
assayEndpoint: pIC50
experimentalValue: 5.84

molecule: C[C@H](c1ccc(F)cc1)n1cncc1CN1CCN(S(=O)(=O)c2cnc(N3CCC(S(C)(=O)=O)C3)s2)CC1 (stereo partly shown) [Compound 7]
assayEndpoint: pIC50
experimentalValue: 5.47

molecule: C[C@H](c1ccc(F)cc1)n1cncc1CN1CCN(S(=O)(=O)c2cnc(N3CC[C@@H]4NCCO[C@H]4C3)s2)CC1
assayEndpoint: pIC50
experimentalValue: 5.61

molecule: CC1CN(c2ncc(S(=O)(=O)N3CCN(Cc4cncn4[C@H](C)c4ccc(F)cc4)CC3)s2)C[C@@H]2C[C@@H](O)CN12 (stereo partly shown)
assayEndpoint: pIC50
experimentalValue: 5.30

Quick check: pIC50 of COC(c1cncn1[C@H](C)c1ccc(F)cc1)C1CCN(S(=O)(=O)c2cnc(Nc3ccc(C(F)(F)F)cn3)s2)CC1 (single isomer, unassigned) [Compound 45a] ?
6.47

So what does the record say about pIC50 for `C[C@H](c1ccc(F)cc1)n1cncc1CN1CCN(S(=O)(=O)c2cnc(N3CCN4C[C@H](O)CC[C@H]4C3)s2)CC1` ?
5.85

Consider the molecule shown here: C[C@H](c1ccc(F)cc1)n1cncc1CN1CCN(S(=O)(=O)c2cnc(N3CCC(S(C)(=O)=O)C3)s2)CC1 (stereo partly shown) [Compound 8] What is its recorded pIC50?
5.46

Query: pIC50; subject: `C[C@H](c1ccc(F)cc1)n1cncc1CN1CCN(S(=O)(=O)c2cnc(N3CC[C@@H]4OCCN[C@H]4C3)s2)CC1`
5.01

Look up pIC50: `C[C@H](c1ccc(F)cc1)n1cncc1CC1CCN(S(=O)(=O)c2cnc(N3CCN(C)CC3)s2)CC1`
5.45

* * *

Here we list molecules with their recorded pIC50 when tested on UniProtKB P10635.
Sequence (P10635 whole entry): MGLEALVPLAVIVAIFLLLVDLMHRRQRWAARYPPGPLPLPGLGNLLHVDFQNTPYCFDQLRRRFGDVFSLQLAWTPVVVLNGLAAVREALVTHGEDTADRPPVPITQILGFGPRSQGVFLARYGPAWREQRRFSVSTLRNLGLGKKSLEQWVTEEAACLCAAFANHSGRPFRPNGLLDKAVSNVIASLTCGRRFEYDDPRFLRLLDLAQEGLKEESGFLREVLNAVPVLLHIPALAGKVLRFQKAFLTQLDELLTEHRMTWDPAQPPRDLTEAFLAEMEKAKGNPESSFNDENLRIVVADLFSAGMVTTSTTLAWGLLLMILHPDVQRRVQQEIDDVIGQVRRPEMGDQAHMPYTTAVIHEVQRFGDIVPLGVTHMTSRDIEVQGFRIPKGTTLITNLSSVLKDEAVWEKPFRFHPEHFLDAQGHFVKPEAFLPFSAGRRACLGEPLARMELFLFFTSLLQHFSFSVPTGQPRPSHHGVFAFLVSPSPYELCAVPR
Scale: negative log10 of molar concentration, which is what pIC50 denotes.

molecule: COC(c1cncn1[C@H](C)c1ccc(F)cc1)C1CCN(S(=O)(=O)c2cnc(Nc3ccc(C(F)(F)F)cn3)s2)CC1 (single isomer, unassigned) [Compound 45a]
assayEndpoint: pIC50
experimentalValue: 5.25

pIC50 for C[C@H](c1ccc(F)cc1)n1cncc1CN1CCN(S(=O)(=O)c2cnc(N3CCN4CCC(O)[C@H]4C3)s2)CC1 (stereo partly drawn) [Compound 27] ?
5.41

* * *

Entries and their measured pIC50 follow.
# measuredTarget: human CYP11B1 (Homo sapiens)
# Sequence (P15538 25-503): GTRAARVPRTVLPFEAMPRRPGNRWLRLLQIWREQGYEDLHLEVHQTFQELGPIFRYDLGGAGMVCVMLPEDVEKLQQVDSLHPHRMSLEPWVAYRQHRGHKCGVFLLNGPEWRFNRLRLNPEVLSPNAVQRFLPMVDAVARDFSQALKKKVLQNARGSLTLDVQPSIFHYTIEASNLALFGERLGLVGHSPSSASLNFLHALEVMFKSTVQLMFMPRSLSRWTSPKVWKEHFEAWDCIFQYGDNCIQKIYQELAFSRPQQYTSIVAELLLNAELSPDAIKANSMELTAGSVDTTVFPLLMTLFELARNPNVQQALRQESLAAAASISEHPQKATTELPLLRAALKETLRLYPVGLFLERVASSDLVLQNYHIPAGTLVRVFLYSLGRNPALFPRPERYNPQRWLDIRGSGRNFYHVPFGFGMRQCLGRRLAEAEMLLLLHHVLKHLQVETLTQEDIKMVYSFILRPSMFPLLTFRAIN
# protocolDetails: IC50 vs CYP11B1 by cortisol synthesis in V79 cells
# particulars: V79 cells expressing human CYP11B1, 1500 nM RSS, cortisol HTRF; test concentrations 0.5-10000 nM
Just the number, please; pIC50 means minus log10 of the concentration in mol/L.

Known results for compounds:
compound: C[C@H](c1ccc(F)cc1)n1cncc1C1C(=O)OCC2CN(S(=O)(=O)c3cnc(Nc4ccc(C(F)(F)F)cn4)s3)CCN21 (stereo partly shown)
pIC50: 5.61

compound: C[C@H](c1ccc(F)cc1)n1cncc1CN1CCN(S(=O)(=O)c2cnc(N3CCNCC3)s2)CC1
pIC50: 5.75

compound: CC(c1cncn1[C@H](C)c1ccc(F)cc1)N1CCN(S(=O)(=O)c2cnc(N3CCN4C[C@H](O)C[C@H]4C3)s2)CC1 (stereo partly shown)
pIC50: 5.42

compound: C[C@H](c1ccc(F)cc1)n1cncc1CN1CCN(S(=O)(=O)c2cnc(N3CCNCC3)cn2)CC1
pIC50: 5.35

--- query ---
Consider the compound shown here: C[C@H](c1ccc(F)cc1)n1cncc1CN1CCN(S(=O)(=O)c2cnc(N3CCN4CCC(O)[C@H]4C3)s2)CC1 (stereo partly shown) What is its recorded pIC50?
5.80

* * *

pIC50: −log10 of the molar value.
For reference, pIC50 measured on CYP1A2 (Homo sapiens):

molecule: C[C@H](c1ccc(F)cc1)n1cncc1C1CC12CCN(S(=O)(=O)c1cnc(N3CCN(C)CC3)s1)CC2 (single isomer, unassigned) [Compound 43a]
assayEndpoint: pIC50
experimentalValue: < 5.00
//
molecule: C[C@H](c1ccc(F)cc1)n1cncc1CN1CCN(S(=O)(=O)c2cnc(N3CCN4C[C@H](O)C[C@@H]4C3)s2)CC1
assayEndpoint: pIC50
experimentalValue: < 5.00
//
molecule: CC(c1cncn1[C@H](C)c1ccc(F)cc1)N1CCN(S(=O)(=O)c2cnc(N3CCN4C[C@H](O)C[C@H]4C3)s2)CC1 (stereo partly drawn)
assayEndpoint: pIC50
experimentalValue: 5.24

Query: pIC50; subject: `C[C@H](c1ccc(F)cc1)n1cncc1CC1(CO)CCN(S(=O)(=O)c2cnc(N3CCN(C)CC3)s2)CC1`
< 5.00

Quick one: pIC50 of C[C@H](c1ccc(F)cc1)n1cncc1CN1CCN(S(=O)(=O)c2cnc(N3CCC(S(C)(=O)=O)C3)s2)CC1 (stereo partly drawn) [Compound 8] ?
< 5.00

Give the measured pIC50 of CC1CN2C[C@H](O)C[C@H]2CN1c1ncc(S(=O)(=O)N2CCN(Cc3cncn3[C@H](C)c3ccc(F)cc3)CC2)s1 (single isomer, unassigned) .
5.06

* * *

# measuredTarget: CYP3A4 (Homo sapiens)
# protocolDetails: IC50 vs CYP3A by inhibition of lopinavir metabolism in human liver microsomes
# Assay type: biochemical
# particulars: pH 7.4, human liver microsomes, 1.5 μM lopinavir, 8 min at 37° C., test concentrations 0.098-100 nM, read-out: 3A4(LPV)
// reported IC50 at 8 min for each item listed

Known results for compounds:
compound: CC1CN(c2ncc(S(=O)(=O)N3CCN(Cc4cncn4[C@H](C)c4ccc(F)cc4)CC3)s2)C[C@@H]2C[C@@H](O)CN12 (stereo partly shown) [Compound 23]
experimentalValue: 1.6 nM

compound: C[C@H](c1ccc(F)cc1)n1cncc1CN1CCN(S(=O)(=O)c2cnc(N3CCN4C[C@H](O)C[C@H]4C3=O)s2)CC1 [Compound 18]
experimentalValue: 1.1 nM

compound: C[C@H](c1ccc(F)cc1)n1cncc1CC1CCN(S(=O)(=O)c2cnc(N3CCN(C)CC3)s2)CC1 [Compound 44]
experimentalValue: 1.1 nM

compound: Cc1ccc(C2(n3cncc3CN3CCN(S(=O)(=O)c4cnc(N5CCN(C)CC5)s4)CC3)CC2)nc1 [Compound 31]
experimentalValue: 4.4 nM

compound: C[C@H](c1ccc(F)cc1)n1cncc1CN1CCN(S(=O)(=O)c2cnc(N3CCC(S(C)(=O)=O)C3)s2)CC1 (stereo partly shown) [Compound 8]
experimentalValue: 1.8 nM

compound: C[C@H](c1ccc(F)cc1)n1cncc1CN1CCN(S(=O)(=O)c2cncc(N3CCNCC3)c2)CC1 [Compound 29]
experimentalValue: 2.9 nM

compound: C[C@H](c1ccc(F)cc1)n1cncc1C1CN(C)CC2CN(S(=O)(=O)c3cnc(Nc4ccccn4)s3)CCN21 (stereo partly shown) [Compound 41]
experimentalValue: 2.1 nM

compound: C[C@H](c1ccc(F)cc1)n1cncc1C1COCC2CN(S(=O)(=O)c3cnc(Nc4ccccn4)s3)CCN21 (stereo partly shown) [Compound 40]
experimentalValue: 0.8 nM

compound: C[C@H](c1ccc(F)cc1)n1cncc1CN1CCN(S(=O)(=O)c2cnc(N3CCNCC3)cn2)CC1 [Compound 30]
experimentalValue: 3.6 nM

compound: C[C@H](c1ccc(F)cc1)n1cncc1CN1CCN(S(=O)(=O)c2cnc(N3CC[C@@H](N)[C@H](F)C3)s2)CC1 [Compound 11]
experimentalValue: < 0.98 nM

# lookup: IC50 at 8 min of C[C@H](c1ccc(F)cc1)n1cncc1CC1(CO)CCN(S(=O)(=O)c2cnc(N3CCN(C)CC3)s2)CC1 [Compound 47]
13 nM

Sample C[C@H](c1ccc(F)cc1)n1cncc1CN1CCN(S(=O)(=O)c2cnc(N3CC[C@@H]4OCCN[C@H]4C3)s2)CC1 [Compound 13] — what was its IC50 at 8 min?
1.4 nM

Report IC50 at 8 min for CN1CCN(c2ncc(S(=O)(=O)N3CCN(Cc4cncn4CCOc4ccc(F)cn4)CC3)s2)CC1 [Compound 33] please.
2.3 nM

Requested read-out: IC50 at 8 min. Entry: C[C@H](c1ccc(F)cc1)n1cncc1CN1CCN(S(=O)(=O)c2cnc(N3CCN4C[C@H](O)C[C@@H]4C3)s2)CC1 [Compound 6]
1.4 nM

Which IC50 at 8 min value is on record for C[C@H](c1ccc(F)cc1)n1cncc1CN1CCN(S(=O)(=O)c2cnc(N3CCNCC3)s2)CC1 [Compound 1] ?
1.4 nM

What does the data say about its IC50 at 8 min? Entry: C[C@H](c1ccc(C#N)cc1)n1cncc1CN1CCN(S(=O)(=O)c2cnc(Nc3ccc(C(F)(F)F)cn3)s2)CC1 [Compound 4]
< 0.1 nM

I am curious: what IC50 at 8 min value has been reported for C[C@H](c1ccc(F)cc1)n1cncc1CN1CCN(S(=O)(=O)c2cnc(N3CC[C@@H](N4CCOCC4)[C@H](F)C3)s2)CC1 [Compound 20] ?
4.1 nM

Reported IC50 at 8 min for C[C@H](c1ccc(F)cc1)n1cncc1CN1CCN(S(=O)(=O)c2cnc(N3CCN(C4CCN(C)CC4)CC3)s2)CC1 [Compound 9] : what is it?
2.8 nM

Dear colleague, I am looking for the recorded IC50 at 8 min of the following compound: C[C@H](c1ccc(F)cc1)n1cncc1CN1CCN(S(=O)(=O)c2cnc(N3CCN4C[C@H](O)CC4(C)C3)s2)CC1 (stereo partly shown) [Compound 24]
1.9 nM
